System: SR leukemia
Test: NCI tumour cell line growth inhibition, 48 h
propertyLabel: TGI

Exercise: // query TGI value for entry CCOc1cc2c(cc1OC(C)=O)C(=O)CC[C@H]1C3CC[C@H](OC(C)=O)[C@@]3(C)CC[C@H]21 (stereo not given in full)
Solution: > 100 µM

Exercise: // query TGI value for entry COC(=O)C1=C(OC(=O)c2ccc(Cl)cc2)C(C(=O)OC)[C@@]2(O)[C@@H](C(=O)OC)C(c3ccccc3Cl)C[C@@H]1[C@@H]2C(=O)OC (stereo not given in full)
Solution: > 100 µM

Exercise: // query TGI value for entry Cc1cn2c(/C=N/Nc3ccccn3)c(-c3ccc(Cl)c([N+](=O)[O-])c3)nc2s1
Solution: 10.6 µM

Exercise: // query TGI value for entry O=C(NCCc1ccccc1)c1c(O)c2ccccc2[nH]c1=O
Solution: > 100 µM

Exercise: // query TGI value for entry O=C1C(=Nc2ccccc2)Oc2cc(O)ccc21
Solution: > 100 µM

====

Tested on: UACC-257 melanoma
Assay: NCI tumour cell line growth inhibition, 48 h
propertyLabel: TGI (µM)
Value expressed in µM; do not type the unit.

Exercise: // query TGI value for entry C[C@]12CCc3sc(Nc4ccc(O)cc4)nc3C1=CC[C@@H]1[C@@H]2CC[C@]2(C)C(=O)CC[C@@H]12
Solution: 4.62

Exercise: // query TGI value for entry Nc1n[nH]c2ccc([C@@H]3Nc4ccc5[nH]ncc5c4[C@H]4C5C=CC(C5)[C@@H]34)cc12 (some centres undefined)
Solution: 58.5

Exercise: // query TGI value for entry FC(F)(F)c1ccc(-c2cnc(Cl)nc2NCc2cc(C(F)(F)F)cc(C(F)(F)F)c2)cc1
Solution: 7.28

====

Exercise: for every item that follows, state its recorded TGI.
Test system: DU-145 prostate
Test: NCI tumour cell line growth inhibition, 48 h

Exercise: // query TGI value for entry COC(=O)C1=C(CCCCO[Si](C)(C)C(C)(C)C)NC(=O)N2[C@@H](CCOCc3ccccc3)CC[C@H]12
Solution: > 100 µM

Exercise: // query TGI value for entry CC(C)CC(NC(=O)C(CCI)Cc1ccccc1)C(=O)Nc1ccccc1 (stereo not given)
Solution: > 100 µM

Exercise: // query TGI value for entry CC(C)N1C(NNC(=O)c2cnccn2)=NS(=O)(=O)c2ccccc21
Solution: > 100 µM

Exercise: // query TGI value for entry COc1cc2c3c(n(C)c(=O)c2cc1OC)-c1cc2c(cc1/C3=C\C(N)CN)OCO2 (stereo not given)
Solution: 10 µM

Exercise: // query TGI value for entry COc1cccc(C2SCC(=O)N2c2ccc(-n3c(-c4ccccc4)nc4ccccc4c3=O)cc2)c1OC (stereo not given)
Solution: > 100 µM

====

Exercise: for every item that follows, state its recorded TGI.
Tested on: OVCAR-8 ovarian
Test: NCI tumour cell line growth inhibition, 48 h
Value expressed in µM; do not type the unit.

Exercise: // query TGI value for entry COc1ccc(-c2nn(-c3cccc(Cl)c3)cc2-c2cc(-c3ccccc3)nc(N)n2)cc1
Solution: 3.78

Exercise: // query TGI value for entry C=C1CCC2C3(C)COC(c4ccccc4Br)OC3CCC2(C)C1C/C=C1/C(=O)OCC1OC(C)=O (stereo not given)
Solution: 1.8

====

Test system: SF-539 CNS
Test: NCI tumour cell line growth inhibition, 48 h
propertyLabel: GI50

Exercise: // query GI50 value for entry CCCOC(=O)CCn1c(SC)nc2[nH]cc(-c3ccccc3)c2c1=O
Solution: 24900 nM

Exercise: // query GI50 value for entry COc1ccc2c(c1)C(C)Cc1c(Cl)nc(C)nc1N2C (stereo unspecified)
Solution: 1680 nM

Exercise: // query GI50 value for entry CC1(C)CC[C@]2(C(=O)N3CCOCC3)CC[C@]3(C)C(=CC[C@@H]4[C@@]5(C)C/C(=C/c6ccncc6)C(=O)C(C)(C)[C@@H]5CC[C@]43C)[C@@H]2C1
Solution: 1730 nM

Exercise: // query GI50 value for entry O=C(CCCSc1nc(-c2ccccc2)cc(-c2ccc(Cl)cc2)n1)NO
Solution: 1610 nM

Exercise: // query GI50 value for entry COc1ccc(-c2nn(-c3cccc(Cl)c3)cc2-c2cc(-c3ccccc3)nc(N)n2)cc1
Solution: 11000 nM

Exercise: // query GI50 value for entry COc1cc(C(=O)/C=C/c2cccnc2Nc2ccccc2)cc(OC)c1OC
Solution: 1650 nM

Exercise: // query GI50 value for entry N.N.NCCCCCCN.O=C([O-])CC(=O)[O-].O=C([O-])CC(=O)[O-].[Pt+4].[Pt+4]
Solution: 73900 nM

Exercise: // query GI50 value for entry N=C(N)c1ccc(COc2ccccc2OCc2ccc(C(=N)N)cc2)cc1
Solution: 14000 nM

Exercise: // query GI50 value for entry CCCCN(CCCC)c1ccc(C(=NC(C)CCCN(CC)CC)c2ccc(N(C)C)cc2)cc1 (stereo unspecified)
Solution: 899 nM

Exercise: // query GI50 value for entry C/C=C/[C@@H]1OC(=O)C2=C[C@@H](O)[C@@H](/C=C/C)O[C@H]21
Solution: 1100 nM

Exercise: // query GI50 value for entry Cn1cc(-c2ccc(-c3cn(C)c4ccc(Cl)cc34)s2)c2cc(Cl)ccc21
Solution: > 100000 nM

Exercise: // query GI50 value for entry C[C@]12CCc3sc(Nc4ccc(O)cc4)nc3C1=CC[C@@H]1[C@@H]2CC[C@]2(C)C(=O)CC[C@@H]12
Solution: 1760 nM

Exercise: // query GI50 value for entry CCCOc1nc(SCCC)nc2c1cnn2-c1ccccc1
Solution: > 100000 nM

Exercise: // query GI50 value for entry Nc1cc(N)c2nc(-c3ccccc3)c(NCc3ccc(F)cc3)nc2c1
Solution: 1830 nM

Exercise: // query GI50 value for entry C=C1CCC2C3(C)COC(c4ccccc4Br)OC3CCC2(C)C1C/C=C1/C(=O)OCC1OC(C)=O (stereo unspecified)
Solution: 1530 nM

Exercise: // query GI50 value for entry CCN(CC)c1ccc(C(=N)c2ccc(N(C)C)cc2)cc1
Solution: 1630 nM

====

System: SK-MEL-28 melanoma
Assay: NCI tumour cell line growth inhibition, 48 h
*1 amine or outer side, *2 acyl side, *3 side chain or, on linkers, in order; H or OH if unused. Where a SMILES comes first, the peptide text is derived from it. [ ]: non-standard residue; d: D form. X33 = C=CCC(O[*:1])C(=O)[*:2]; NMeV = CN[CH](C(=O)O)C(C)C; NMeA = CN[CH](C)C(=O)O; βAla = NCCC(=O)O
Exercise: for every item that follows, state its recorded TGI.

Exercise: Any idea what TGI came out for CCOc1ncn(-c2ccc(NC(=S)NC34CC5CC(CC(C5)C3)C4)cc2)n1 on SK-MEL-28 melanoma?
Solution: > 100 µM

Exercise: Any idea what TGI came out for CCOC(=O)c1nc(-c2ccccc2)oc1OCC on SK-MEL-28 melanoma?
Solution: > 100 µM

Exercise: Any idea what TGI came out for O=C(O)CC1OCC=C2CN3CCC45C6=CC(=O)C(=O)C([N+](=O)[O-])=C6NC4C1C2CC35 (stereo unspecified) on SK-MEL-28 melanoma?
Solution: > 100 µM

Exercise: Any idea what TGI came out for O=C(/C=C/c1ccccc1)CSc1nc2ccc(I)cc2c(=O)n1Cc1ccccc1 on SK-MEL-28 melanoma?
Solution: > 100 µM

Exercise: Any idea what TGI came out for COC(=O)C1=C(OC(=O)c2ccc(Cl)cc2)C(C(=O)OC)[C@@]2(O)[C@@H](C(=O)OC)C(c3ccccc3Cl)C[C@@H]1[C@@H]2C(=O)OC (stereo partly specified) on SK-MEL-28 melanoma?
Solution: > 100 µM

Exercise: Any idea what TGI came out for C=C=C(Sc1ccccc1)C(C)(C)OC(C)=O on SK-MEL-28 melanoma?
Solution: 31.4 µM

Exercise: Any idea what TGI came out for Nc1cc(N)c2nc(-c3ccccc3)c(NCc3ccc(F)cc3)nc2c1 on SK-MEL-28 melanoma?
Solution: 3.77 µM

Exercise: Any idea what TGI came out for COc1ccc(-c2nn(-c3cccc(Cl)c3)cc2-c2cc(-c3ccccc3)nc(N)n2)cc1 on SK-MEL-28 melanoma?
Solution: 42.1 µM

Exercise: Any idea what TGI came out for FC(F)(F)c1ccc(-c2cnc(Cl)nc2NCc2cc(C(F)(F)F)cc(C(F)(F)F)c2)cc1 on SK-MEL-28 melanoma?
Solution: > 100 µM

Exercise: Any idea what TGI came out for CN(C(=O)c1ccncc1)c1ccccc1 on SK-MEL-28 melanoma?
Solution: > 100 µM

Exercise: Any idea what TGI came out for CCN(CC)C(=S)N=Nc1c(O)[nH]c2ccccc12 on SK-MEL-28 melanoma?
Solution: > 100 µM

Exercise: Any idea what TGI came out for CC(c1ccccc1)/[N+]([O-])=C/c1ccccc1 (stereo unspecified) on SK-MEL-28 melanoma?
Solution: > 100 µM

Exercise: Any idea what TGI came out for CCOc1ccc(NCC2CC/C(=C\c3ccc(O)cc3)C2=O)cc1 (stereo unspecified) on SK-MEL-28 melanoma?
Solution: 29.2 µM

Exercise: Any idea what TGI came out for O=C1Nc2ccccc2/C1=C/c1c(Cl)[nH]c2ccc(O)cc12 on SK-MEL-28 melanoma?
Solution: 22.5 µM

Exercise: Any idea what TGI came out for O=C(c1cccnc1)c1cc(-c2ccccn2)c(=O)n2ccccc12 on SK-MEL-28 melanoma?
Solution: > 100 µM

Exercise: Any idea what TGI came out for N=C(N)c1ccc(COc2ccccc2OCc2ccc(C(=N)N)cc2)cc1 on SK-MEL-28 melanoma?
Solution: > 100 µM

Exercise: Any idea what TGI came out for O=C(CCCSc1nc(-c2ccccc2)cc(-c2ccc(Cl)cc2)n1)NO on SK-MEL-28 melanoma?
Solution: 15.3 µM

Exercise: Any idea what TGI came out for N#Cc1cc([N+](=O)[O-])ccc1NC(=O)/C(=N/N)C(C(=O)c1ccc(Cl)c(Cl)c1)C1OC(=O)c2ccccc21 (stereo unspecified) on SK-MEL-28 melanoma?
Solution: > 100 µM

Exercise: Any idea what TGI came out for O=C(Cc1ccccc1)NNc1nc(NNC(=O)c2ccncc2)nc(Nc2cccc(Cl)c2)n1 on SK-MEL-28 melanoma?
Solution: > 10 µM

Exercise: Any idea what TGI came out for Cn1cc(-c2ccc(-c3cn(C)c4ccc(Cl)cc34)s2)c2cc(Cl)ccc21 on SK-MEL-28 melanoma?
Solution: > 100 µM

Exercise: Any idea what TGI came out for COc1cc(/C=C/C(=O)c2sc(NNC(C)=O)nc2C)ccc1O on SK-MEL-28 melanoma?
Solution: > 100 µM

Exercise: Any idea what TGI came out for OCC1OC(n2cnc3c(=S)nc[nH]c32)C(O)C1O (stereo unspecified) on SK-MEL-28 melanoma?
Solution: > 2500 µM

Exercise: Any idea what TGI came out for O=C(Cc1ccccc1)NCCCN(CCCCN(CCCNC(=O)Cc1ccccc1)C(=O)OCc1ccccc1)C(=O)OCc1ccccc1 on SK-MEL-28 melanoma?
Solution: > 100 µM

Exercise: Any idea what TGI came out for O=C1NC(=O)C(COCc2ccccc2)C2=C1SCCC2 (stereo unspecified) on SK-MEL-28 melanoma?
Solution: > 100 µM

Exercise: Any idea what TGI came out for CC(C)(C)OC(=O)N(CCNS(=O)(=O)c1cccc2cnccc12)CCC(=O)ON1C(=O)CCC1=O on SK-MEL-28 melanoma?
Solution: > 100 µM

Exercise: Any idea what TGI came out for c1ccc(C2OCC(OC3CCCCO3)CO2)cc1 (stereo unspecified) on SK-MEL-28 melanoma?
Solution: > 100 µM

Exercise: Any idea what TGI came out for Clc1nc(NCCc2ccccc2)c2ncn(-c3ccccc3)c2n1 on SK-MEL-28 melanoma?
Solution: 94.1 µM

Exercise: Any idea what TGI came out for O=C1/C(=C/c2c(Cl)[nH]c3ccccc23)c2ccccc2N1c1ccccc1 on SK-MEL-28 melanoma?
Solution: 23.8 µM

Exercise: Any idea what TGI came out for CS(=O)(=O)Nc1ccc(N=Cc2c(O)[nH]c3ccccc23)cc1 on SK-MEL-28 melanoma?
Solution: > 25 µM

Exercise: Any idea what TGI came out for COCCNc1cc(NC(=O)N2CCCc3cc(CN4CCN(C)CC4=O)c(C=O)nc32)ncc1C#N on SK-MEL-28 melanoma?
Solution: > 50 µM

Exercise: Any idea what TGI came out for CCCOc1nc(SCCC)nc2c1cnn2-c1ccccc1 on SK-MEL-28 melanoma?
Solution: > 100 µM

Exercise: Any idea what TGI came out for C=CCC1OC(=O)CCNC(=O)C(C)N(C)C(=O)C(C(C)C)N(C)C(=O)C(C(C)CC)NC(=O)C2CCCN2C1=O (stereo unspecified) (cyclo([X33]PI[NMeV][NMeA][βAla]); configuration not given here) on SK-MEL-28 melanoma?
Solution: > 100 µM

Exercise: Any idea what TGI came out for c1ccc(CSc2nnc3c4ccccc4c4ccccc4c3n2)cc1 on SK-MEL-28 melanoma?
Solution: > 100 µM

Exercise: Any idea what TGI came out for CC(=O)NC1CC2Oc3ccc(C)cc3C(C)(O2)C1O (stereo unspecified) on SK-MEL-28 melanoma?
Solution: > 100 µM

Exercise: Any idea what TGI came out for COc1cccc(C2SCC(=O)N2c2ccc(-n3c(-c4ccccc4)nc4ccccc4c3=O)cc2)c1OC (stereo unspecified) on SK-MEL-28 melanoma?
Solution: > 100 µM

Exercise: Any idea what TGI came out for CCc1nnc(-c2nsc3ccccc23)s1 on SK-MEL-28 melanoma?
Solution: > 100 µM

Exercise: Any idea what TGI came out for CCN(CC)CC(C(=O)Nc1c(C)cccc1C)/C(C)=N\NC(=O)c1ccncc1 (stereo unspecified) on SK-MEL-28 melanoma?
Solution: > 100 µM

Exercise: Any idea what TGI came out for C=C1CCC2C3(C)COC(c4ccccc4Br)OC3CCC2(C)C1C/C=C1/C(=O)OCC1OC(C)=O (stereo unspecified) on SK-MEL-28 melanoma?
Solution: 3.15 µM

Exercise: Any idea what TGI came out for COC(C)(C)CCc1[nH]c2ccccc2c1CC(=O)NCCc1cncn1C on SK-MEL-28 melanoma?
Solution: > 100 µM

Exercise: Any idea what TGI came out for COc1ccc2c(c1)C(C)Cc1c(Cl)nc(C)nc1N2C (stereo unspecified) on SK-MEL-28 melanoma?
Solution: 38.5 µM

Exercise: Any idea what TGI came out for O=c1[nH]c(-c2ccccc2)nc2c1sc1nc3ccccc3n12 on SK-MEL-28 melanoma?
Solution: > 100 µM

Sourced from PubChem BioAssay (NCI)
